testMethodNotes: Liver blood index, ratio of EC50 for Plasmodium falciparum W2 to EC50 for Plasmodium berghei
Assay type: functional
Grouping key: Ratio EC50. Bins: bucket A (below 0.6), bucket B (0.6 to below 10), bucket C (10 or more)

CCCCc1cc2c(=O)c(C(=O)N(C)C)c[nH]c2cc1OCCOc1ccccc1	bucket A
COC(=O)c1c[nH]c2cc(OCCOc3ccccc3)c(Br)cc2c1=O	bucket C
CCCCc1cc2c(=O)c(C(=O)O)c[nH]c2cc1OCCOc1ccccc1	bucket C
COC(=O)c1c[nH]c2ccccc2c1=O	bucket C
COC(=O)c1c[nH]c2cc(OCCOc3ccccc3)c(C)cc2c1=O	bucket A
CCCCc1cc2c(=O)c(I)c[nH]c2cc1OCCOc1ccccc1	bucket A
CCCCc1ccc2[nH]ccc(=O)c2c1	bucket B
CCCCc1cc2c(=O)c(C(=O)OC)c[nH]c2cc1OCCOc1ccccc1	bucket B
CCCCc1cc2c(=O)cc[nH]c2cc1OCCOc1ccccc1	bucket C
CCCCc1cc2c(=O)c(C#N)c[nH]c2cc1OCCOc1ccccc1	bucket C

[Q] Class (by measured Ratio EC50) for CCCCc1cc2c(=O)c(C(=O)NCCO)c[nH]c2cc1OCCOc1ccccc1
[A] bucket C

---

Test system: Plasmodium berghei
testMethodNotes: Antimalarial activity against Plasmodium berghei infected in mouse assessed as inhibition of parasitemia at 50 mg/kg, po administered as single dose measured on day 3 post drug exposure relative to untreated control
Format: functional
cond: 72 h
Documented inhibition in vivo at 50 mg/kg across a set of compounds
Field format: number, assumed %, no unit text.

COC(=O)c1c[nH]c2ccc(OCCc3ccccc3)cc2c1=O	7.69
COC(=O)c1c[nH]c2cc(OCCCc3ccccc3)ccc2c1=O	69.2
CCCCc1cc2c(=O)c(CC)c[nH]c2cc1OCCOc1ccccc1	69.2
COC(=O)c1c[nH]c2cc(OCCc3ccccc3)ccc2c1=O	60

Let's switch to this compound now.
[Q] I'd like to know its inhibition in vivo at 50 mg/kg. The compound in question is CCCCc1cc2c(=O)c(Br)c(C)[nH]c2cc1OCCOc1ccccc1
[A] 100

---

Tested on: J774
testMethodNotes: Cytotoxicity against mouse J774 cells
Type: cell-based
pEC50: −log10 of the molar value.
Item-by-item account of pEC50

CCCCc1cc2c(=O)c(C(=O)NCCO)c[nH]c2cc1OCCOc1ccccc1	< 4.70
CCCCc1cc2c(=O)c(C(=O)NCC)c[nH]c2cc1OCCOc1ccccc1	< 4.70

[Q] # get_value(readout='pEC50', item= COC(=O)c1c[nH]c2cc(OCc3ccccc3)ccc2c1=O )
[A] 4.72

[Q] Which pEC50 reading was recorded for the molecule CCCc1cc2c(=O)c(C(=O)OC)c[nH]c2cc1OCCOc1ccccc1 ?
[A] < 4.70

[Q] Which pEC50 value is on record for COC(=O)c1c[nH]c2ccc(Oc3ccccc3)cc2c1=O ?
[A] < 4.70

[Q] # pEC50 lookup, item COC(=O)c1c[nH]c2cc(Oc3ccccc3)ccc2c1=O
[A] 5.04

[Q] What value of measured pEC50 is listed for O=c1cc[nH]c2cc(OCCOc3ccccc3)ccc12 ?
[A] < 4.70

[Q] Please report the recorded pEC50 for CCCCc1cc2c(=O)c(C#N)c[nH]c2cc1OCCOc1ccccc1 .
[A] < 4.70

[Q] Dear colleague, I am looking for the recorded pEC50 of the following molecule: COC(=O)c1c[nH]c2cc(F)ccc2c1=O
[A] < 4.70

---

testMethodNotes: Liver blood index, ratio of EC50 for Plasmodium falciparum W2 to EC50 for Plasmodium berghei
Type: functional
Known Ratio EC50 of a selection of compounds
A bare number is all that is needed in reply.

[Q] Which Ratio EC50 value is on record for COC(=O)c1c[nH]c2ccc(Cl)cc2c1=O ?
[A] 13.2

[Q] Consider the compound COC(=O)c1c[nH]c2cc(Oc3ccccc3)ccc2c1=O and give its measured Ratio EC50.
[A] 0.15

[Q] // query Ratio EC50 value for entry CCCCc1ccc2[nH]cc(C(=O)OC)c(=O)c2c1
[A] 1.93

---

Tested on: J774
testMethodNotes: Cytotoxicity against mouse J774 cells
Type: cell-based
pEC50: −log10 of the molar value.
observationType: pEC50

COC(=O)c1c[nH]c2cc(-c3ccccc3)ccc2c1=O	< 4.70
CCCCc1ccc2[nH]ccc(=O)c2c1	< 4.70
COC(=O)c1c[nH]c2cc(OCCOc3ccccc3)c(Br)cc2c1=O	< 4.70
COC(=O)c1c[nH]c2cc(Cl)ccc2c1=O	< 4.70
CCCCc1cc2c(=O)c(Br)c[nH]c2cc1OCCOc1ccccc1	5.09
CCCCc1cc2c(=O)cc[nH]c2cc1OCCOc1ccccc1	< 4.70
COC(=O)c1c[nH]c2cc(OCCOc3ccccc3)c(OC)cc2c1=O	< 4.70
COC(=O)c1c[nH]c2ccc(Oc3ccc(F)cc3)cc2c1=O	< 4.70

[Q] Looking for the measured pEC50 of CCCCc1cc2c(=O)c(C(=O)NC)c[nH]c2cc1OCCOc1ccccc1 , can you help?
[A] < 4.70

[Q] So what's the measured pEC50 for this one? COC(=O)c1c[nH]c2ccc(OCc3ccccc3)cc2c1=O
[A] 5.12

[Q] Returns the measured pEC50 for the input molecule. Input: CCCCCc1cc2c(=O)c(C(=O)OC)c[nH]c2cc1OCCOc1ccccc1
[A] < 4.70

[Q] Requested field: pEC50. Item: CCCCc1cc2c(=O)c(C(=O)O)c[nH]c2cc1OCCOc1ccccc1
[A] < 4.70

[Q] Name the reported pEC50 value associated with the molecule COC(=O)c1c[nH]c2cc(OCCOc3ccccc3)ccc2c1=O
[A] < 4.70

[Q] Sample COC(=O)c1c[nH]c2ccc(-c3ccccc3)cc2c1=O — what was its pEC50?
[A] < 4.70

[Q] Can you share its pEC50? I mean this molecule: COC(=O)c1c[nH]c2cc(OCCc3ccccc3)ccc2c1=O
[A] 4.76

[Q] Fill blank: measured pEC50 of the molecule CCOc1ccc2[nH]cc(C(=O)OC)c(=O)c2c1 is ____.
[A] < 4.70

[Q] Entry COC(=O)c1c[nH]c2cc(OCCCc3ccccc3)ccc2c1=O : reported pEC50 = ?
[A] 5.83

[Q] Quick one: pEC50 of CCCCc1ccc2[nH]cc(C(=O)OC)c(=O)c2c1 ?
[A] < 4.70

[Q] Given the molecule COC(=O)c1c[nH]c2ccc(OCCc3ccccc3)cc2c1=O , what is its reported pEC50?
[A] 5.66

---

testMethodNotes: Liver blood index, ratio of EC50 for Plasmodium falciparum W2 to EC50 for Plasmodium berghei
Format: functional
observationType: Ratio EC50

# example entries with known answers
COC(=O)c1c[nH]c2ccc(OCCc3ccccc3)cc2c1=O	3.53
COC(=O)c1c[nH]c2cc(OCCOc3ccccc3)c(OC)cc2c1=O	0.396
CCCCc1cc2c(=O)c(Cl)c(C)[nH]c2cc1OCCOc1ccccc1	0.616

[Q] Look at this compound and give its reported Ratio EC50. COC(=O)c1c[nH]c2cc(OCCOc3ccccc3)c(Cl)cc2c1=O
[A] 158

[Q] Suppose we examine the compound CCCCc1cc2c(=O)c(CC)c[nH]c2cc1OCCOc1ccccc1 ; what Ratio EC50 value has been reported?
[A] 0.166

---

Listing: EC50 of selected compounds
Test system: J774
testMethodNotes: Cytotoxicity against mouse J774 cells
Type: cell-based
Numbers only here, please. The scale is µM.

Known results for compounds:
CCCCc1cc2c(=O)c(CC)c[nH]c2cc1OCCOc1ccccc1	0.36
COC(=O)c1c[nH]c2ccc(OCCCc3ccccc3)cc2c1=O	17.1

[Q] What value of measured EC50 is listed for CCCCc1cc2c(=O)c(C(=O)N(C)C)c[nH]c2cc1OCCOc1ccccc1 ?
[A] 15.3

---

Catalogue of Ratio EC50 readings, one per entry.
testMethodNotes: Liver blood index, ratio of EC50 for Plasmodium falciparum W2 to EC50 for Plasmodium berghei
Format: functional

Reference set (5 entries):
CCCCc1cc2c(=O)c(C(=O)OCC)c[nH]c2cc1OCCOc1ccccc1	19.6
COC(=O)c1c[nH]c2cc(OCCOc3ccccc3)ccc2c1=O	9.79
CCCCc1cc2c(=O)c(Br)c[nH]c2cc1OCCOc1ccccc1	0.248
COC(=O)c1c[nH]c2ccc(OCc3ccccc3)cc2c1=O	0.091
COC(=O)c1c[nH]c2ccc(OCCCc3ccccc3)cc2c1=O	1.3

Now turn to the next compound.
[Q] Query: Ratio EC50; subject: COC(=O)c1c[nH]c2cc(OCCCc3ccccc3)ccc2c1=O
[A] 0.14

---

We begin with a simple list: items and their reported pEC50.
System: J774
testMethodNotes: Cytotoxicity against mouse J774 cells
Format: cell-based
pEC50: −log10 of the molar value.

[Q] Form field - read-out: pEC50; system: J774; submitted item: COC(=O)c1c[nH]c2cc(OCCOc3ccccc3)c(C)cc2c1=O
[A] < 4.70

[Q] What is its pEC50 for J774? Entry: CCCCc1cc2c(=O)c(C(=O)OCC)c[nH]c2cc1OCCOc1ccccc1
[A] < 4.70

[Q] Item: CCCCc1cc2c(=O)c(Cl)c(C)[nH]c2cc1OCCOc1ccccc1 Test system: J774 Read-out: pEC50 Value: ?
[A] < 5.00
